Provenance of the data: ChEMBL document CHEMBL2069246

# Target of assay: Cytochrome P450 1A2 (Homo sapiens, UniProt P05177)
# Sequence (P05177 whole entry): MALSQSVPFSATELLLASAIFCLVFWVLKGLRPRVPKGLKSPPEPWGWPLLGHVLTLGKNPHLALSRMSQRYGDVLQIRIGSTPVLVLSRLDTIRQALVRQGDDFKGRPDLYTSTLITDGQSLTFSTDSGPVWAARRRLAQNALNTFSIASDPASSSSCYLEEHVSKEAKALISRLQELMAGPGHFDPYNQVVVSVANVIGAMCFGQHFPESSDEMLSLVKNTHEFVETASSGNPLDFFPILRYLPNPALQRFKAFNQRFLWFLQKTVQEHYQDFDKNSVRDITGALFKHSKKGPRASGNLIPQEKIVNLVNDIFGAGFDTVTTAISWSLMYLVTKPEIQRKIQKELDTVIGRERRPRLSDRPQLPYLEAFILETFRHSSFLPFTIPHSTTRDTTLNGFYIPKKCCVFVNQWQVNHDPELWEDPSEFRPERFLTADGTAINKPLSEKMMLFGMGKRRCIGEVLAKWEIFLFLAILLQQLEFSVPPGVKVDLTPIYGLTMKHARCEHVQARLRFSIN
# Assay explanation: Activity of human recombinant CYP1A2 assessed as enzyme contribution towards compound metabolism at 37 degC
# Format: ADME
Here, each record is paired with measured Activity data.
API: value field is a number in %; no unit string.

> print(dat)
                         chemical.structure  recorded.number
1  c1ccc(CN2CCN(Cc3nnc(-c4ccccc4)o3)CC2)cc1                0
2  Clc1cc(-c2nc(CSc3nnc(-c4ccncc4)n3C3CC3)no2)ccn1              0.2
3  O=C(NCc1ccncc1)c1nnc(CS(=O)(=O)c2ccccc2)o1                0

Ask | Test system Cytochrome P450 1A2 (Homo sapiens, UniProt P05177); read-out Activity; what value for "Clc1cc(-c2nnc(CSc3nnc(-c4ccncc4)n3C3CC3)o2)ccn1" ?
Reply | 0

Ask | Proceed to "O=C(NC1CCCCC1)c1nnc(CS(=O)(=O)c2ccccc2)o1"
Reply | 0

Ask | Field entry: "O=C(NCc1ccncc1)c1nc(CS(=O)(=O)c2ccccc2)no1"
Reply | 0

Ask | Subsequent entry: "O=C(NC1CCCCC1)c1nc(CS(=O)(=O)c2ccccc2)no1"
Reply | 0.2

Ask | Thanks! And "c1ccc(CN2CCN(Cc3nc(-c4ccccc4)no3)CC2)cc1" ?
Reply | 1.5

Ask | Ok, now "c1cc(-c2noc(C3CCCCC3)n2)ccn1"
Reply | 29.5

Ask | And "c1cc(-c2nnc(C3CCCCC3)o2)ccn1" ?
Reply | 68.5

* * *

Each item that follows carries a reported inhibition at 50 µM.
# Target of assay: CYP2C8 (Homo sapiens)
# Sequence (P10632 whole entry): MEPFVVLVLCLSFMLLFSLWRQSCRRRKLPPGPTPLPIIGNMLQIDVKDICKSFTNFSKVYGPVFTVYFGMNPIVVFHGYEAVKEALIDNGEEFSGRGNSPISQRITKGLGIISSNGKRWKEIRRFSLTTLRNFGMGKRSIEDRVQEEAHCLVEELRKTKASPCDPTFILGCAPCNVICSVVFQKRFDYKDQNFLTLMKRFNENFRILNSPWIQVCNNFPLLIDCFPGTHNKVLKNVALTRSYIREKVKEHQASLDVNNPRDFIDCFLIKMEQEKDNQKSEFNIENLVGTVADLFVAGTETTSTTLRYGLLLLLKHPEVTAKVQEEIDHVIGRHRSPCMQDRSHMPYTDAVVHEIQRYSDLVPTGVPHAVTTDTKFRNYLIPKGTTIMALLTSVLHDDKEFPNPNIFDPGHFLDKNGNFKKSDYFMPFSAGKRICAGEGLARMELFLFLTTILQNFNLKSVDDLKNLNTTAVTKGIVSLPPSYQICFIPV
# Assay explanation: Time dependent inhibition of human recombinant CYP2C8 coexpressed in Escherichia coli at 50 uM using amodiaquine as probe
# Format: ADME

> print(dat)
                         chemical.structure        target.of.assay              measure  result
1  O=C(NCc1ccncc1)c1nnc(CS(=O)(=O)c2ccccc2)o1  CYP2C8 (Homo sapiens)  inhibition at 50 µM   < 14%
2  Clc1cc(-c2nc(CSc3nnc(-c4ccncc4)n3C3CC3)no2)ccn1  CYP2C8 (Homo sapiens)  inhibition at 50 µM   < 14%

Ask | # get_value(readout='inhibition at 50 µM', item= "Clc1cc(-c2nnc(CSc3nnc(-c4ccncc4)n3C3CC3)o2)ccn1" )
Reply | < 14%

Ask | And "O=C(NC1CCCCC1)c1nnc(CS(=O)(=O)c2ccccc2)o1" ?
Reply | < 13%

Ask | Thanks! And "c1cc(-c2noc(C3CCCCC3)n2)ccn1" ?
Reply | < 13%

Ask | Ok, now "O=C(NCc1ccncc1)c1nc(CS(=O)(=O)c2ccccc2)no1"
Reply | < 14%

Ask | Next up: "O=C(NC1CCCCC1)c1nc(CS(=O)(=O)c2ccccc2)no1"
Reply | < 13%

Ask | // repeat for "c1ccc(CN2CCN(Cc3nc(-c4ccccc4)no3)CC2)cc1" and report
Reply | < 13%

Ask | Queued: "c1cc(-c2nnc(C3CCCCC3)o2)ccn1"
Reply | < 14%

* * *

# Target of assay: Cytochrome P450 2C19 (Homo sapiens)
# Sequence (P33261 whole entry): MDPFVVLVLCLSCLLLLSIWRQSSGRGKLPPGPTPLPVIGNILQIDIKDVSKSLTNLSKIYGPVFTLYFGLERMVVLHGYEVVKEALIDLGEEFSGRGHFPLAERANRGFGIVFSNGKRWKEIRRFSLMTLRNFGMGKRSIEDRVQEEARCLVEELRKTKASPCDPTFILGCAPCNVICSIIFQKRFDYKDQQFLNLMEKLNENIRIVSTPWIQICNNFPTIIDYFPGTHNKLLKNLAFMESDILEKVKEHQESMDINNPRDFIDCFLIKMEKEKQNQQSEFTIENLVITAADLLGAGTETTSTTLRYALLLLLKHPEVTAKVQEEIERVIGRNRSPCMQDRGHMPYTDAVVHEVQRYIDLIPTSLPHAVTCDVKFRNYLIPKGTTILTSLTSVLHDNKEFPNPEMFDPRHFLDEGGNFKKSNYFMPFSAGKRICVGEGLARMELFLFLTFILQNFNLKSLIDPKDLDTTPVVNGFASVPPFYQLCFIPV
# Assay explanation: Inhibition of human recombinant CYP2C19 coexpressed in Escherichia coli
# key: entry, value: IC50

> print(dat)
                         chemical.structure   result
1  c1ccc(CN2CCN(Cc3nc(-c4ccccc4)no3)CC2)cc1  > 20 µM

Ask | Request - read-out IC50 | tested on Cytochrome P450 2C19 (Homo sapiens) | molecule "c1ccc(CN2CCN(Cc3nnc(-c4ccccc4)o3)CC2)cc1"
Reply | > 20 µM

Ask | And for "c1cc(-c2nnc(C3CCCCC3)o2)ccn1" ?
Reply | 1.3 µM

Ask | Could you do the same for "c1cc(-c2noc(C3CCCCC3)n2)ccn1" , please?
Reply | 1.2 µM

Ask | Another molecule to check: "Clc1cc(-c2nnc(CSc3nnc(-c4ccncc4)n3C3CC3)o2)ccn1"
Reply | > 20 µM

Ask | Also "O=C(NCc1ccncc1)c1nc(CS(=O)(=O)c2ccccc2)no1" ?
Reply | 1.3 µM

Ask | Note, next up: "Clc1cc(-c2nc(CSc3nnc(-c4ccncc4)n3C3CC3)no2)ccn1"
Reply | > 20 µM

Ask | Now the molecule "O=C(NC1CCCCC1)c1nc(CS(=O)(=O)c2ccccc2)no1"
Reply | > 20 µM

Ask | How about this molecule: "O=C(NCc1ccncc1)c1nnc(CS(=O)(=O)c2ccccc2)o1"
Reply | 9.8 µM

Ask | Can you check "O=C(NC1CCCCC1)c1nnc(CS(=O)(=O)c2ccccc2)o1" next?
Reply | > 20 µM

* * *

# Target of assay: CYP3A4 (Homo sapiens, UniProt P08684)
# Sequence (P08684 whole entry): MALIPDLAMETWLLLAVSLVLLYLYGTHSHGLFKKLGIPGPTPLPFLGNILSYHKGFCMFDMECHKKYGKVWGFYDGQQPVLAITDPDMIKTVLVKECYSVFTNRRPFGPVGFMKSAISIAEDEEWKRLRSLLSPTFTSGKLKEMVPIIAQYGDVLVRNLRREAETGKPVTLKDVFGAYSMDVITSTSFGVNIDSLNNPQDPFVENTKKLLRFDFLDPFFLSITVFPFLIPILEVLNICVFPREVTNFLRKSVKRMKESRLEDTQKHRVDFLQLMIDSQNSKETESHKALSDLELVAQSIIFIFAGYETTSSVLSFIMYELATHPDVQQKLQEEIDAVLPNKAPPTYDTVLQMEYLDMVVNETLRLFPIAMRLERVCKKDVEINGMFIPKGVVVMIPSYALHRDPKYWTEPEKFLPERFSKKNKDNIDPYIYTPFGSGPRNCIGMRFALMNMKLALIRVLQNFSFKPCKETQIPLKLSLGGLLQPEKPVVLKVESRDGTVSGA
# Assay explanation: Time dependent inhibition of human recombinant CYP3A4 coexpressed in Escherichia coli at 50 uM using midazolam as probe
# Type: ADME
Measure: inhibition at 50 µM

> print(dat)
                         chemical.structure              measure  result
1  O=C(NC1CCCCC1)c1nc(CS(=O)(=O)c2ccccc2)no1  inhibition at 50 µM    < 7%
2              c1cc(-c2noc(C3CCCCC3)n2)ccn1  inhibition at 50 µM    < 7%
3  O=C(NCc1ccncc1)c1nc(CS(=O)(=O)c2ccccc2)no1  inhibition at 50 µM     42%
4  Clc1cc(-c2nnc(CSc3nnc(-c4ccncc4)n3C3CC3)o2)ccn1  inhibition at 50 µM    < 7%
5              c1cc(-c2nnc(C3CCCCC3)o2)ccn1  inhibition at 50 µM    < 7%
6  c1ccc(CN2CCN(Cc3nc(-c4ccccc4)no3)CC2)cc1  inhibition at 50 µM      9%

Ask | Fill blank: measured inhibition at 50 µM of the compound "O=C(NCc1ccncc1)c1nnc(CS(=O)(=O)c2ccccc2)o1" is ____.
Reply | < 7%

Ask | Try this compound next: "O=C(NC1CCCCC1)c1nnc(CS(=O)(=O)c2ccccc2)o1"
Reply | < 7%

Ask | Field entry: "Clc1cc(-c2nc(CSc3nnc(-c4ccncc4)n3C3CC3)no2)ccn1"
Reply | 30%

* * *

# Target of assay: Cytochrome P450 2C8 (Homo sapiens, UniProt P10632)
# Sequence (P10632 whole entry): as the sequence (P10632 whole entry) above
# Assay explanation: Activity of human recombinant CYP2C8 assessed as enzyme contribution towards compound metabolism at 37 degC
# Format: ADME
Attribute: Activity
Answer with a number only, understood to be in %.

> print(dat)
                         chemical.structure   measure  recorded.number
1              c1cc(-c2noc(C3CCCCC3)n2)ccn1  Activity              1.5
2  O=C(NCc1ccncc1)c1nc(CS(=O)(=O)c2ccccc2)no1  Activity                0

Ask | Recorded Activity for "c1cc(-c2nnc(C3CCCCC3)o2)ccn1" , please?
Reply | 1.5

Ask | Quick one: "O=C(NC1CCCCC1)c1nc(CS(=O)(=O)c2ccccc2)no1"
Reply | 0

Ask | Then this molecule: "O=C(NC1CCCCC1)c1nnc(CS(=O)(=O)c2ccccc2)o1"
Reply | 0

* * *

Some compounds, each annotated with its measured IC50.
# Target of assay: Cytochrome P450 2C9 (Homo sapiens)
# Sequence (P11712 whole entry): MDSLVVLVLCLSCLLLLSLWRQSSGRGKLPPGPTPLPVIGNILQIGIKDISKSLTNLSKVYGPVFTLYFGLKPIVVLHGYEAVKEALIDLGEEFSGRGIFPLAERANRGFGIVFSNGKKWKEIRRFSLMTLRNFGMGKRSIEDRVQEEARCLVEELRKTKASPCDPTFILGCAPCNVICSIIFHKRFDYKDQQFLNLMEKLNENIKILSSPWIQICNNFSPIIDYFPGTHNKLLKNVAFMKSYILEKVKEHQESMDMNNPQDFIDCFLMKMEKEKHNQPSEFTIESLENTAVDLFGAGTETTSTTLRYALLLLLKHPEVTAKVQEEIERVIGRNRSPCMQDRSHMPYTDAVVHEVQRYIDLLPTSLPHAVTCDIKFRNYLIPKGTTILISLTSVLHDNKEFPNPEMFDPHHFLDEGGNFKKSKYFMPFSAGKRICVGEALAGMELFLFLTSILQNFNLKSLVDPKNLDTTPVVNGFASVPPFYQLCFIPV
# Assay explanation: Inhibition of human recombinant CYP2C9 coexpressed in Escherichia coli

Reference set, count: 5
> print(dat)
                         chemical.structure   result
1  O=C(NC1CCCCC1)c1nc(CS(=O)(=O)c2ccccc2)no1  > 20 µM
2  O=C(NC1CCCCC1)c1nnc(CS(=O)(=O)c2ccccc2)o1  > 20 µM
3              c1cc(-c2nnc(C3CCCCC3)o2)ccn1  > 20 µM
4  Clc1cc(-c2nnc(CSc3nnc(-c4ccncc4)n3C3CC3)o2)ccn1  > 20 µM
5  O=C(NCc1ccncc1)c1nnc(CS(=O)(=O)c2ccccc2)o1   1.7 µM

Ask | Form field - read-out: IC50; system: Cytochrome P450 2C9 (Homo sapiens); submitted item: "Clc1cc(-c2nc(CSc3nnc(-c4ccncc4)n3C3CC3)no2)ccn1"
Reply | > 20 µM

Ask | Same question for "c1cc(-c2noc(C3CCCCC3)n2)ccn1" please.
Reply | 17.6 µM

Ask | What do you get for "c1ccc(CN2CCN(Cc3nnc(-c4ccccc4)o3)CC2)cc1" ?
Reply | > 20 µM

Ask | Could you do the same for "O=C(NCc1ccncc1)c1nc(CS(=O)(=O)c2ccccc2)no1" , please?
Reply | 2.2 µM
